Origin of values: patent US9782484B2

Assay: Average particle diameter of dried powder converted from BET specific surface area
Type: physicochemical
Conditions: starting organic compound powder, Table 1 and text
Description: According to the present invention, the “average particle diameter converted from the BET specific surface area” is calculated by converting a value of the specific surface area measured by the BET flow method (one-point type) to the diameter of a hypothetical spherical particle. The following formula 1 is a conversion formula for converting a value of the specific surface area to the diameter. […]
READOUT NAME: Average Particle Diameter before Fine-pulverizing

In the examples that follow, each entry is paired with its recorded Average Particle Diameter before Fine-pulverizing.
INSERT INTO results (compound, readout_value) VALUES
  ('O=C(O)Cc1ccc(-c2ccccc2)cc1', '34,000 nm'),
  ('Clc1ccc(COC(Cn2ccnc2)c2ccc(Cl)cc2Cl)c(Cl)c1 (stereo not shown)', '10,900 nm'),
  ('CCC(=O)O[C@]1(C(=O)SCF)[C@H](C)C[C@H]2[C@@H]3C[C@H](F)C4=CC(=O)C=C[C@]4(C)[C@@]3(F)[C@@H](O)C[C@@]21C [fluticasone propionate]', '7,850 nm');

Lookup: Consider the compound COc1ccc2c(c1)c(CC(=O)O)c(C)n2C(=O)c1ccc(Cl)cc1 and give its measured Average Particle Diameter before Fine-pulverizing.
Found: 3,960 nm
